# System: LOC_OS05G43570-cb004
# test-protocol: thermal shift delta Tm vs DMSO control; higher = stronger stabilization (binding);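 further: purified Escherichia coli-expressed rice kinase domain construct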
# assay-context: 12.5 µM; protein concentration 2 µM

{"columns": ["compound", "measured-target", "value-unit", "thermal shift delta Tm"],
 "data": [
  ["CC(C)NC(=O)C1CCC(n2c(NC(=O)c3ccc(F)cc3)nc3ccc(CN4CCC(C(C)(C)O)CC4)cc32)CC1 (stereo not drawn)", "LOC_OS05G43570-cb004", "°C", 0.09],
  ["CCCCOc1c(C(=O)c2c(F)cc(C)cc2F)c[nH]c2nncc1-2", "LOC_OS05G43570-cb004", "°C", 0.9],
  ["CC(=O)c1c(C)c2cnc(Nc3ccc(N4CCNCC4)cn3)nc2n(C2CCCC2)c1=O", "LOC_OS05G43570-cb004", "°C", 0.31],
  ["FC(F)(F)c1ccc(CNc2ccc(Cc3c[nH]c4ncc(Cl)cc34)cn2)cn1", "LOC_OS05G43570-cb004", "°C", 0.8],
  ["O=C1NC(=O)C(=Cc2ccc(-c3ccc(F)cc3)o2)S1 (stereo in doubt)", "LOC_OS05G43570-cb004", "°C", 1.06],
  ["CCn1c(=O)c(-c2ccc(Cl)cc2Cl)cc2cnc(Nc3ccc(N4CCNCC4)c(F)c3)nc21", "LOC_OS05G43570-cb004", "°C", 0.35],
  ["O=C(Cc1ccc(-c2ccc(OCCN3CCOCC3)cc2)cn1)NCc1ccccc1", "LOC_OS05G43570-cb004", "°C", 0.34],
  ["O=c1c(O)c(-c2ccc(O)c(O)c2)oc2cc(O)cc(O)c12", "LOC_OS05G43570-cb004", "°C", 1.19],
  ["COc1cc(CCc2cc(NC(=O)c3ccc(N4CC(C)NC(C)C4)cc3)n[nH]2)cc(OC)c1 (stereo not drawn)", "LOC_OS05G43570-cb004", "°C", 0.4],
  ["CN1CCN(Cc2ccc(-c3cnc4[nH]cc(-c5ccc6[nH]ccc6c5)c4c3)cc2)CC1", "LOC_OS05G43570-cb004", "°C", 1.74],
  ["COc1cc(Nc2ncc(F)c(Nc3ccc4c(n3)N(COP(=O)(O)O)C(=O)C(C)(C)O4)n2)cc(OC)c1OC [Fostamatinib (R788)]", "LOC_OS05G43570-cb004", "°C", 0.38],
  ["Cc1ccc(-n2nc(C(C)(C)C)cc2NC(=O)NCc2cc(F)ccc2Oc2ccc3c(cnn3CCO)c2)cc1", "LOC_OS05G43570-cb004", "°C", 0.54],
  ["Cc1[nH]c(/C=C2\\C(=O)Nc3ccccc32)c(C)c1CCC(=O)O [Orantinib (TSU-68, SU6668)]", "LOC_OS05G43570-cb004", "°C", 0.68],
  ["O=C(c1cccc(Cl)c1F)N1CCN(Cc2cccc(Nc3nccs3)n2)CC1", "LOC_OS05G43570-cb004", "°C", -0.14],
  ["CCCCCCCCCCCCCCCCn1cc[n+](Cc2ccccc2)c1C", "LOC_OS05G43570-cb004", "°C", -3.26],
  ["N#CCNC(=O)c1ccc(-c2ccnc(Nc3ccc(N4CCOCC4)cc3)n2)cc1", "LOC_OS05G43570-cb004", "°C", 0.76],
  ["O=C1NCCc2[nH]c(-c3ccncc3)cc21", "LOC_OS05G43570-cb004", "°C", 0.46],
  ["Oc1ccc(-c2nc(-c3ccc(F)cc3)c(-c3ccncc3)[nH]2)cc1", "LOC_OS05G43570-cb004", "°C", 1.13],
  ["CCOc1cc(C(=O)N2CCC(N3CCN(C)CC3)CC2)ccc1Nc1ncc2c(n1)N(C1CCCC1)c1ccccc1C(=O)N2C", "LOC_OS05G43570-cb004", "°C", 0.17],
  ["CNc1nc(Nc2cn(C(C)(C)C#N)nc2C)ncc1C(F)(F)F", "LOC_OS05G43570-cb004", "°C", 0.56],
  ["C#Cc1cccc(Nc2ncnc3cc(OC)c(OCCCCCCC(=O)NO)cc23)c1", "LOC_OS05G43570-cb004", "°C", 0.66],
  ["CC(C)(C#N)c1ccc(N2C(=O)OCc3cnc4ccc(-c5cnc6ccccc6c5)cc4c32)cc1", "LOC_OS05G43570-cb004", "°C", 0.71],
  ["Cc1cc(CN2CCN(c3c(Br)cnc4nc(-c5ccc(N6CCN(C)CC6)cc5)[nH]c34)CC2)no1", "LOC_OS05G43570-cb004", "°C", 0.18]
]}

---

# System: LOC_OS02G17970-cb001
# test-protocol: thermal shift delta Tm vs DMSO control; higher = stronger stabilization (binding)
# assay-context: 12.5 µM; protein concentration 2 µM
Where a name gives a salt, the structure may show the parent alone.
thermal shift delta Tm vs 0.9 °C: at or above is 1, below is 0.

{"columns": ["compound", "label-value"],
 "data": [
  ["CCN1CCN(Cc2ccc(Nc3ncc(F)c(-c4cc(F)c5nc(C)n(C(C)C)c5c4)n3)nc2)CC1", 0],
  ["C[C@@H]1COC(Nc2ccc3ncnc(Nc4ccc(OCc5nccs5)c(Cl)c4)c3c2)=N1", 1],
  ["CCCCCCCCCC(=O)CC(O)S(=O)(=O)O (stereo unspecified) [Sodium Houttuyfonate]", 1],
  ["COc1ncc(-c2ccc3nccc(-c4ccnnc4)c3c2)cc1NS(=O)(=O)c1ccc(F)cc1F", 1],
  ["C[C@@H](NC(=O)c1ncnc(N)c1Cl)c1ncc(C(=O)Nc2cc(C(F)(F)F)c(Cl)cn2)s1", 0],
  ["Cc1cc([C@@H](C)Nc2ccccc2C(=O)O)c2nc(N3CCOCC3)cc(=O)n2c1", 1],
  ["O=C(c1cccc(Cl)c1F)N1CCN(Cc2cccc(Nc3nccs3)n2)CC1", 0],
  ["O=C(O)c1ccc2c3c1cccc3c(=O)n1c3ccccc3nc21", 0],
  ["O=C(NOC[C@H](O)CO)c1ccc(F)c(F)c1Nc1ccc(I)cc1F", 0],
  ["O=C(Nc1cccc(Cl)c1)Nc1ncc(CCNc2ncnc3ccsc23)s1 [SNS-314 Mesylate]", 1],
  ["Cc1cc(Nc2cc(N3CCN(C)CC3)nc(Sc3ccc(NC(=O)C4CC4)cc3)n2)n[nH]1", 1],
  ["C[C@H](NC(=O)/C(C#N)=C/c1cccc(Br)n1)c1ccccc1", 0],
  ["COc1ccc(-c2ccc3ncc4c(c3c2)n(-c2ccc(N3CCNCC3)c(C(F)(F)F)c2)c(=O)n4C)cn1", 0],
  ["COc1ccc(C(=O)Nc2sc3c(c2C(N)=O)CCCC3)cc1OC", 0],
  ["CCN1CCN(Cc2ccc(C(=O)Nc3ccc(C)c(Oc4ccc5c(c4)CC(=O)N5)c3)cc2C(F)(F)F)CC1", 1],
  ["O=C(O)c1ccc2c(c1)nc(Nc1cccc(Cl)c1)c1ccncc12", 1],
  ["Cc1ccc(Nc2nccc(N(C)c3ccc4c(C)n(C)nc4c3)n2)cc1S(N)(=O)=O", 0],
  ["CN(C)C/C=C/C(=O)Nc1ccc(C(=O)Nc2cccc(Nc3ncc(Cl)c(-c4c[nH]c5ccccc45)n3)c2)cc1", 1],
  ["CN(C)C[C@@H]1CCn2cc(c3ccccc32)C2=C(C(=O)NC2=O)c2cn(c3ccccc23)CCO1", 1],
  ["Cc1ccc(CNc2ncnc3ccc(-c4ccc(CO)o4)cc23)o1", 1],
  ["O=C(Nc1nccs1)C(c1cc(F)ccc1O)N1Cc2ccccc2C1=O (stereo unspecified)", 0]
]}

---

# Test system: LOC_OS04G57630-cb004
# test-protocol: thermal shift delta Tm vs DMSO control; higher = stronger stabilization (binding)
# assay-context: 12.5 µM; protein concentration 2 µM
Listing of recorded thermal shift delta Tm by entry.

{"columns": ["molecule", "thermal shift delta Tm (°C)"],
 "data": [
  ["Cc1cc(C(=O)Nc2nc3cccc(Cl)c3n2[C@@H]2CCCCN(C(=O)/C=C/CN(C)C)C2)ccn1 [Nazartinib (EGF816, NVS-816)]", 0.04],
  ["NC1(c2ccc(-c3nc4ccn5c(=O)[nH]nc5c4cc3-c3ccccc3)cc2)CCC1", -0.22],
  ["CC1(C)CNc2cc(NC(=O)c3cccnc3NCc3ccncc3)ccc21 [Motesanib Diphosphate (AMG-706)]", -0.11],
  ["CS(=O)(=O)c1ccc(-c2cnc(N)c(C(=O)Nc3ccccc3)n2)cc1", 0.45],
  ["O=c1sn(-c2cccc3ccccc23)c(=O)n1Cc1ccccc1", -0.25],
  ["O=C1NC(=O)[C@@H](c2cn3c4c(cccc24)CCC3)[C@@H]1c1c[nH]c2ccccc12 [Tivantinib (ARQ 197)]", 0.47],
  ["Cc1c(Cn2c(C)nc3c(C(=O)O)cc(N4CCOCC4)cc32)cccc1C(F)(F)F", -0.06],
  ["CCCNC(=O)c1cn2ncnc(Nc3cc(C(=O)NC4CC4)ccc3C)c2c1C", 0.07],
  ["CC(C)Nc1cc(-c2c[nH]c(C(=O)N[C@H](CO)c3cccc(Cl)c3)c2)c(Cl)cn1", -0.02],
  ["Cc1c(CN2CCN(C(=O)[C@H](C)O)CC2)sc2c(N3CCOCC3)nc(-c3cnc(N)nc3)nc12", 0.67],
  ["CCS(=O)(=O)Nc1ccc2c(c1)/C(=C(/Nc1ccc(CN3CCCCC3)cc1)c1ccccc1)C(=O)N2", 7.62]
]}

Hello, the source for this data is the supplement of paper PMC9694430, in case you need it.
